Values from patent US20180016324A1

Target: T1, ZIKV (prM80E) with a C-terminal myc-myc-hexahistidine tag (Zika virus, UniProt A0A024B7W1 104-694)
T1 construct: also called ZIKV (prM80E)-mmH; ZIKV-mmH
Assay: SPR, mAb captured, 37C, pH 7.4
Assay readout: koff (s⁻¹)
Numeric only. Scale: s⁻¹

// known answers, use as guide
1) H4H25619P (antibody, V domains shown) VH: QVQLVESGGGVVQPGRSLRLSCTASGFTFSTYGMHWVRHVPGKGLEWVAIVWYDGSDKSYAASVKGRFTISRDNSKNTLFLQMNSLRAEDTAVYYCARQGTYYYYGMDVWGQGTTVTVSS VL: DIQMTQSPSSLSASVGDRVTITCRSSQTITNYLNWYQQRPGKAPKLLIYAASSLQSGVPSRFSGSGSGTDFTLTISSLQPEDFATYYCQQSYSTPPITFGQGTKLEIKR: 0.00193
2) H4H25587P (antibody, V domains shown) VH: EVQLVESGGGLVQPGRSLTLSCAASGFTFDDYVMHWVRQAPGKGLEWVSGISWNSDTIDYADSVKGRFTISRDNAKNSLYLQMNSLRAEDTALYYCAKDRRSWYGGYFDYWGQGTLVTVSS VL: DIQMTQSPSSLSASVGDRVTITCRASQGISSYLAWYQQKPGKVPKLLIYAASTLQSGVPSRFSGSGSGTDFSLTISSLQPEDVATYYCQKYNSAPLTFGGGTKVEIK: 0.018

Can you look up the measured koff of H4H25640P (antibody, V domains shown) VH: QVQLVESGGGVVQPGRSLRLSCAASGFTFSYYGMHWVRQAPGKGLEWVAVILYDGSNKFYSDSVKGRFTISRDNSRNTLYLQMNSLRLEDTAVYYCAKDYGGRFDYWGQGTLVTVSS VL: EIVLTQSPGTLSLSSGERATLSCRASQSVSNKYLAWYQQKPGQVPRLLIYGASNRATGIPDRFSGSGSGTDFTLTINRLEPEDFAVFYCQQYGSTPSTFGQGTKVEIK for me?
0.00172
